Test system: SK-OV-3 ovarian
Assay: NCI-60 one-dose screen, 48 h
Settings: 10 µM unless noted
The panel holds about 83,000 compounds, 20% with a hit somewhere; the sample as a whole holds those more often. Calls of active or inactive are those of the source. Rule for the calls: active = growth percent below 10; inactive = the rest.
Classes used: 1 (yes) (active), 0 (no) (inactive)

• Cn1cc(C(=O)c2nc(-c3c[nH]c4ccc(Br)cc34)no2)c2cc(Br)ccc21 = 0 (no)
• O=C(CCCCCCCCC(=O)N/N=C\c1cc(Cl)ccc1O)N/N=C\c1cc(Cl)ccc1O = 0 (no)
• CCOC(=O)c1n[nH]n2c1nc(=O)c1cnn(C)c12 = 0 (no)
• COc1cc(C2Cc3ncccc3-c3[nH]c(=O)c4cccnc4c32)cc(OC)c1OC (configuration not stated) = 0 (no)
• CCN(CC)c1ccc(N2C(=O)/C(=C/c3cccs3)SC2=S)cc1 = 0 (no)
• Cc1ccc(/C=C(\C#N)C(=O)Nc2ncc(Cc3cc(Cl)ccc3Cl)s2)o1 = 0 (no)
• CNCc1cccc2c1OCCOCCN(C)C(=O)CN(C)S(=O)(=O)c1ccc(cc1)-c1cnc(N)c(n1)C(=O)N2 = 1 (yes)
• COc1ccc(/C=C/C(=O)c2cc3c(N)c(C(=O)Nc4ccccc4C)sc3nc2C)cc1 = 0 (no)
• Cc1cc(C)cc(Nc2ccc([N+](=O)[O-])c(NCCN3CCOCC3)n2)c1 = 0 (no)
• Cn1c(/C=C/[N+](=O)[O-])cc2ccccc21 = 0 (no)
• CCOC(=O)C1=C(C)N=C2SC=C(c3ccccc3)N2[C@H]1c1cn[nH]c1-c1ccc(Cl)cc1 = 0 (no)
• Cc1ccc(-c2nc(C(Cl)Cl)nc3cc(C)nn23)cc1 = 1 (yes)
• COc1ccc(/C(C)=C(\c2ccc(Cl)cc2)c2ccc(OCCN3CCCC3)cc2)cc1 = 0 (no)
• O=C(/C=C/c1ccccc1)Nc1ncc(Cc2ccccc2)s1 = 0 (no)
• Fc1ccc(COc2ccc(Nc3ncnc4sc5c(c34)CCCC5)cc2)cc1 = 0 (no)
• COc1cc(C2=NN(C(C)=O)C(c3ccc(N(C)C)cc3)C2)cc(OC)c1OC (configuration not stated) = 0 (no)
• Cc1c2cc[nH]c(=O)c2c(C)c2c1[nH]c1ccc(OC(=O)c3ccccc3)cc12 = 1 (yes)
• CC1=CCC[C@@H]2C1(C)CC[C@H](C)[C@@]2(C)CC1=CC(=O)C(SC(C)(C)C)=CC1=O (some centres not stated) = 0 (no)
• O=C1Nc2ccccc2C2c3cccn3-c3ccccc3N12 (configuration not stated) = 0 (no)
• COc1ccc2nc3cc(Cl)ccc3c(NCCN)c2c1 = 0 (no)
• N=C(N)c1ccc(-c2ccc(-c3ccc(Cl)cc3Cl)s2)cc1F = 0 (no)
• CC(C)CCC[C@@H](C)C1CCC2C3CCC4=C/C(=N/OCCN(C)C)CC[C@]4(C)C3CC[C@@]21C (some centres not stated) = 0 (no)
• CCN(CC)CCCC(C)Nc1ccc2cc(OC)ccc2n1 (configuration not stated) = 0 (no)
• COc1ccc(C2C3=C(COC3=O)N(CCO)c3cc4c(cc32)OCCO4)cc1OC (configuration not stated) = 0 (no)
• COc1ccc2[nH]cc(-c3nc(-c4cn(C)c5ccncc45)cs3)c2c1 = 0 (no)
• COc1ccc(NC(=O)c2ccc(C(=O)Nc3ccc(OC)cc3OC)cc2)c(OC)c1 = 0 (no)
• C=CC(=O)N1CCN(c2ccc3cccc(NC(=O)c4cnc(C)cn4)c3n2)CC1 = 0 (no)
• CC(C)CCSc1nc(Nc2ccccc2)c(C#N)c(-c2ccccc2)n1 = 0 (no)
• Cc1nn(-c2ccccc2)c(N2CCCCC2)c1/C=N/NC(=O)Cn1c(=O)sc2ccccc21 = 0 (no)
• COc1cc(N2C(=O)[C@H](c3ccccc3)C2c2ccc(SC)cc2)cc(OC)c1OC (some centres not stated) = 1 (yes)
• COc1cccc(C(=O)OCC(O)C(=O)NC23CC4CC(CC(C4)C2)C3)c1 (configuration not stated) = 0 (no)
• N#Cc1c(NC(=O)c2cccs2)[n+]([O-])c2ccc(Cl)cc2[n+]1[O-] = 0 (no)
• NNC(=S)N/N=C/c1ccccn1 = 0 (no)
• CCOC(=O)C/C(=N\Nc1cc(=O)[nH]c2ccc(Cl)cc12)C(=O)OCC = 0 (no)
• CCOc1ccc(/C=N\N=C\c2ccc(OCC)cc2)cc1 = 0 (no)
• Nc1ccc([N+](=O)[O-])cc1N=C/C=C/c1ccccc1 = 0 (no)
• O=C1CC2C=CCN2C=C1NC(=O)C1CCCCC1 (configuration not stated) = 0 (no)
• CCOC(=O)c1c(C)nn(CC(O)c2ccccc2)c1NC(=O)Nc1cccc(F)c1 (configuration not stated) = 0 (no)
• CCOC(=O)C1CCN(c2ccc(N3C[C@@H](CNCc4ccc(C(=N)N)cc4)OC3=O)cc2)CC1 = 0 (no)
• Cn1ncc2ccc(-c3nc(-c4ccccc4)[nH]c3-c3n[nH]c(=O)n3C3CC3)cc21 = 0 (no)
• COC(=O)c1ccc2c(c1)c1c(C)c3ccncc3c(C)c1n2C = 0 (no)
• COc1ccc(C(C)=O)cc1S(N)(=O)=O = 0 (no)
